Listed next: entries and their corresponding inhibition.
- SYSTEM NAME: Protein deacetylase HDAC6 (Homo sapiens) (UniProt Q9UBN7)
- Sequence (Q9UBN7 whole entry): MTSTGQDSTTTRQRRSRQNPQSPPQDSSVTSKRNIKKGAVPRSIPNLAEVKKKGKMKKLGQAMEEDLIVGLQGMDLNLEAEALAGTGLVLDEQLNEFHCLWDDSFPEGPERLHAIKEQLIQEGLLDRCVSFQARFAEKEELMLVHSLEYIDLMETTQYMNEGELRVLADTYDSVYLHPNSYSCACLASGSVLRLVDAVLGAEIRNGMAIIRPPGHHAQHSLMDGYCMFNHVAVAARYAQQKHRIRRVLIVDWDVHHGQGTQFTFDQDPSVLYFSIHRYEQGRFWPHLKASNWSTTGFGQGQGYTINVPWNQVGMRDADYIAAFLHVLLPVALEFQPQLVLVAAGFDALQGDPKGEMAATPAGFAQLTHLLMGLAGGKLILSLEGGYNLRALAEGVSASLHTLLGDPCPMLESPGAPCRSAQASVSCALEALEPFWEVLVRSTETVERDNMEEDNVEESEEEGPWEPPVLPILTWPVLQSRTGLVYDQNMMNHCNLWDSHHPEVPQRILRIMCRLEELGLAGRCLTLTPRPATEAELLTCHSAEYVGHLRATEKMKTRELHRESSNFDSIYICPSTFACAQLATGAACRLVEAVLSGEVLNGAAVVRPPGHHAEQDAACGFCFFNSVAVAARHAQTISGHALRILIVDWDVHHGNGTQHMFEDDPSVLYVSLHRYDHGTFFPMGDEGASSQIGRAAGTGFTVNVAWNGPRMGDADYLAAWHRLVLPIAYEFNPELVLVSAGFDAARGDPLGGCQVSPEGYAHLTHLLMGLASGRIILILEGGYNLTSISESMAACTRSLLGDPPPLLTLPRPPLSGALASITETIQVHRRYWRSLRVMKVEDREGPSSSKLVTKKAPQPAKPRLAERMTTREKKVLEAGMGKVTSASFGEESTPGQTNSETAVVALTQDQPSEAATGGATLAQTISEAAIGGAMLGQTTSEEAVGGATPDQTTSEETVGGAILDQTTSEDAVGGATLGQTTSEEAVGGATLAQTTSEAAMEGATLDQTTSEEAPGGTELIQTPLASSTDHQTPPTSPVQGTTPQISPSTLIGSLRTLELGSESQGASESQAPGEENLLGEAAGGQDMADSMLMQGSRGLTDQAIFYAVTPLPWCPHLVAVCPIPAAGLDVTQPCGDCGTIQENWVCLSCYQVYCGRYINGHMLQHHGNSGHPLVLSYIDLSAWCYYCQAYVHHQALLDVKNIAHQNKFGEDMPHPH
- PROTOCOL: Inhibition of HDAC6 (unknown origin) at 1 uM using Ac-peptide as a substrate pretreated for 15 mins followed by substrate addition relative to control
Give a bare numeral; the unit % is implied.

Nc1nc2cc(-c3nn(CCCCCCCC(=O)NO)c4ncnc(N)c34)ccc2o1 | 99.1
Nc1nc2cc(-c3nn(CCCCCC(=O)NO)c4ncnc(N)c34)ccc2o1 | 97.8
Nc1ncnc2c1c(-c1cnc3[nH]ccc3c1)nn2CCCCCCC(=O)NO | 99.1
Nc1ncnc2c1c(-c1cnc3[nH]ccc3c1)nn2CCCCCCCCC(=O)NO | 99.2
Nc1nc2cc(-c3nn(CCCCCCC(=O)NO)c4ncnc(N)c34)ccc2o1 | 99
Nc1nc2cc(-c3nn(CCCCC(=O)NO)c4ncnc(N)c34)ccc2o1 | 95.1
Nc1ncnc2c1c(-c1cnc3[nH]ccc3c1)nn2CCCCCCCC(=O)NO | 100
Nc1ncnc2c1c(-c1cnc3[nH]ccc3c1)nn2CCCCCCCCCC(=O)NO | 98.3

GET /value?item= `Nc1nc2cc(-c3nn(CCCCCCCCC(=O)NO)c4ncnc(N)c34)ccc2o1` &field=inhibition returns 99

GET /value?item= `Nc1nc2cc(-c3nn(CCCCCCCCCC(=O)NO)c4ncnc(N)c34)ccc2o1` &field=inhibition returns 98.2
